# System: RXRa DBDmut IVT, anti-RXR (DBD mutation: RXRa K156A/R161A, NR concentration 90 nM)
# ASSAY NAME: PBM binding z-score (relative to random genomic background probes); higher = stronger binding; sequences stand for … in GC…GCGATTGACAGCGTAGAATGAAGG
Note to self: values exactly at 0.6 are Criterion met. So PBM binding z-score at or above 0.6 is Criterion met, below is Criterion not met.

Example entries and their recorded answers appear below.
>>> group_label("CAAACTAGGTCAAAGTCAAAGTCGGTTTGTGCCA")
"Criterion met"
>>> group_label("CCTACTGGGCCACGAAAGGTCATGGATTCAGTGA")
"Criterion not met"
>>> group_label("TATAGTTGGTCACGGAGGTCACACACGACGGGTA")
"Criterion not met"
>>> group_label("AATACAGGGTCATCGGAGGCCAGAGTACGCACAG")
"Criterion met"
>>> group_label("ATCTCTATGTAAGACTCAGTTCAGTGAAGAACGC")
"Criterion not met"

Does the sequence `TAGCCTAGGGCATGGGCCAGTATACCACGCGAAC` have recorded PBM binding z-score that is 0.6 or more? Criterion not met

Does the sequence `CATTACGGGTCACGAGGTTATAGCACGACGAGCG` have recorded PBM binding z-score that is 0.6 or more? Criterion met

Does the sequence `ACAGAAAGGTGAGTGAAGGTAACTCAGCTGGACG` have recorded PBM binding z-score that is 0.6 or more? Criterion not met

Does the sequence `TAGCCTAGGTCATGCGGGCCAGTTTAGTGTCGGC` have recorded PBM binding z-score that is 0.6 or more? Criterion met

###

# Tested on: LXRb homodimer (NR concentration 270 nM)
# ASSAY NAME: PBM binding z-score (relative to random genomic background probes); higher = stronger binding; sequences stand for … in GC…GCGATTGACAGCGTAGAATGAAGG
Reported PBM binding z-score values are given for each entry in this list.
Give your answer as a number; write no unit.

Consider the worked cases shown below.
>>> recorded_measurement("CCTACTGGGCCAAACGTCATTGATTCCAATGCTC")
-0.218
>>> recorded_measurement("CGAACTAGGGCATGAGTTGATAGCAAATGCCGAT")
-0.828
>>> recorded_measurement("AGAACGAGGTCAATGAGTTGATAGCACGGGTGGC")
1.3

Entry `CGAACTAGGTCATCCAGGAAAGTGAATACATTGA` : reported PBM binding z-score = ? 0.453

Entry `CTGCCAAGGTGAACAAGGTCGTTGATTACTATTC` : reported PBM binding z-score = ? -0.569

Entry `CCGACTGGAGCATAAGGTTACCATAAGCCAGCCC` : reported PBM binding z-score = ? -0.551

Entry `GCTAGCAGGCCATTTGGGTCATTCAATGACGGGC` : reported PBM binding z-score = ? -1.08

Entry `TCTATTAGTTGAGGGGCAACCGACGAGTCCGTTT` : reported PBM binding z-score = ? 0.923

Entry `CGTACAGGGTCAGCTAGGCCAGAGTAGGGACGGC` : reported PBM binding z-score = ? -0.514

Entry `CGTCAAAGTTCAAGGTAACGAAACAGAAAGCAGC` : reported PBM binding z-score = ? 0.914

Entry `CCTCGGAGGACAATAGGAGGTCAGAGCTGCCAGA` : reported PBM binding z-score = ? -0.2

Entry `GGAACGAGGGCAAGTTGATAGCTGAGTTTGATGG` : reported PBM binding z-score = ? -0.455

Data origin: the supplement of paper PMC6555819
